System: OVCAR-5 ovarian
Assay: NCI-60 one-dose screen, 48 h (100 = growth as untreated, 0 = no growth, -100 = all killed)
Details: 10 µM unless noted
The panel holds about 83,000 compounds, 20% with a hit somewhere; the sample as a whole holds those more often.
Parameter: growth. Scope: all listed entries.
I only need the number, in %, no unit after it.

Reference set, count: 3
Which growth value is on record for COC(=O)c1[nH]nc2c1C1(C(=O)N(C)c3ccccc31)C(C#N)=C(N)O2 (centres undefined) ?
103

And the next one, O=C(Nc1nonc1-c1ccccc1)c1ccc(C(F)(F)F)cc1 ?
100

And the next one, Cn1cc(-c2nc(N)nnc2-c2c[nH]c3ccc(Br)cc23)c2cc(Br)ccc21 ?
79.9

Continuing:
Which growth value is on record for Oc1cccc2ccc(-c3nnc(SCc4ccc(O)c5ncccc45)n3-c3ccccc3)nc12 ?
47.8

And the next one, O=C1[C@@H]2Cc3c([nH]c4ccccc34)[C@H](c3c(Cl)cccc3Cl)N2C(=O)CN1C1CCN(CC2CCCCC2)CC1 ?
93.4

And the next one, C/C(=N\O)[C@H]1C[C@]23CC[C@]4(C)[C@H](CC[C@@H]5[C@@]6(C)CC/C(=N/O)C(C)(C)[C@@H]6CC[C@]54C)[C@H]2[C@H](C)C1(C)OC3 ?
105

And the next one, CS(=O)(=O)Nc1cc(-c2ccc3ncc(C#N)c(N[C@H](CO)c4ccccc4)c3c2)cnc1Cl ?
74.1

And the next one, COc1cc(-c2nn(C(C)(C)C)cc2-c2ccnc(NCCCNS(=O)(=O)c3ccccc3)n2)ccc1Cl ?
84.3

And the next one, c1ccc(C(c2nc3ncncc3[nH]2)N2CSc3nc4ccccc4n3C2)cc1 (centres undefined) ?
103

----------
Tested on: SK-MEL-28 melanoma
Test: NCI-60 one-dose screen, 48 h (100 = growth as untreated, 0 = no growth, -100 = all killed)
Details: 10 µM unless noted
The panel holds about 83,000 compounds, 20% with a hit somewhere; the sample as a whole holds those more often.
Parameter: growth. Scope: all listed entries.
I only need the number, in %, no unit after it.

Reference set, count: 5
Return growth measured with SK-MEL-28 melanoma given this molecule: CCNC(=O)N1CCc2cc(OC)c(OCCc3ccc(OC)c(N)c3)cc2C1c1cc(C)c(C)cc1C (stereo unspecified)
44.7

And the next one, N#Cc1cccc(NC(=O)c2cc(-c3ccc(F)cc3F)ccc2O)c1 ?
25

And the next one, C#CCOC(=O)[C@@H]1CCCN1CC#C ?
107

And the next one, C=CC(=O)N1CC=C(c2cc3c(N[C@H](C)c4ccccc4)ncnc3[nH]2)CC1 ?
104

And the next one, Nn1c(N/N=C/c2nc3ccccc3s2)n[nH]c1=S ?
114

Continuing:
Return growth measured with SK-MEL-28 melanoma given this molecule: CCOC(=O)c1c(Nc2ccccc2)nn2c(-c3ccc(Cl)cc3)ccnc12
87.2

And the next one, COc1cc(-c2nc(SC(C)C)n(C(C)C)c(=O)c2C#N)ccc1OCc1ccccc1 ?
96.8

----------
Tested on: SNB-75 CNS
Experiment: NCI-60 one-dose screen, 48 h (100 = growth as untreated, 0 = no growth, -100 = all killed)
Conditions: 10 µM unless noted
Compounds without any hit were thinned out: in the full panel of roughly 83,000, 20% have a hit. Activity calls are given as the source filed them. How the source made its calls: active means growth percent below 10; inactive means the rest.
REPORTED METRIC: growth

Reference set, count: 4
Return growth measured with SNB-75 CNS given this compound: O=C1CC(=O)N2CSCN(C(c3ccccc3)c3nc4ncncc4[nH]3)C2=N1 (stereo not given)
99.8% (inactive)

And the next one, NS(=O)(=O)c1ccc(-n2cc(-c3cccc(NC(=O)c4ccc(N5CCOCC5)c(C(F)(F)F)c4)c3)nn2)cc1 ?
65.2% (inactive)

And the next one, O=C(Nc1nc2ccc([N+](=O)[O-])cc2s1)Nc1ccccc1Br ?
77.3% (inactive)

And the next one, Cc1ccc(-n2c(/C=C3\C(=O)Nc4ccccc43)ccc2CO)cc1 ?
41.5% (inactive)

Now for a further compound.
Return growth measured with SNB-75 CNS given this compound: COc1cc2c(cc1OC)C(Sc1ccc(F)cc1)c1c(nc(N)c(C#N)c1N)O2 (stereo not given)
52.9% (inactive)

Just for reference, PubChem BioAssay (NCI) is where these values come from.
